Target: T1, hiR2-FL-R554A-T7 (human, UniProt Q6PJF5 1-856)
T1 sequence: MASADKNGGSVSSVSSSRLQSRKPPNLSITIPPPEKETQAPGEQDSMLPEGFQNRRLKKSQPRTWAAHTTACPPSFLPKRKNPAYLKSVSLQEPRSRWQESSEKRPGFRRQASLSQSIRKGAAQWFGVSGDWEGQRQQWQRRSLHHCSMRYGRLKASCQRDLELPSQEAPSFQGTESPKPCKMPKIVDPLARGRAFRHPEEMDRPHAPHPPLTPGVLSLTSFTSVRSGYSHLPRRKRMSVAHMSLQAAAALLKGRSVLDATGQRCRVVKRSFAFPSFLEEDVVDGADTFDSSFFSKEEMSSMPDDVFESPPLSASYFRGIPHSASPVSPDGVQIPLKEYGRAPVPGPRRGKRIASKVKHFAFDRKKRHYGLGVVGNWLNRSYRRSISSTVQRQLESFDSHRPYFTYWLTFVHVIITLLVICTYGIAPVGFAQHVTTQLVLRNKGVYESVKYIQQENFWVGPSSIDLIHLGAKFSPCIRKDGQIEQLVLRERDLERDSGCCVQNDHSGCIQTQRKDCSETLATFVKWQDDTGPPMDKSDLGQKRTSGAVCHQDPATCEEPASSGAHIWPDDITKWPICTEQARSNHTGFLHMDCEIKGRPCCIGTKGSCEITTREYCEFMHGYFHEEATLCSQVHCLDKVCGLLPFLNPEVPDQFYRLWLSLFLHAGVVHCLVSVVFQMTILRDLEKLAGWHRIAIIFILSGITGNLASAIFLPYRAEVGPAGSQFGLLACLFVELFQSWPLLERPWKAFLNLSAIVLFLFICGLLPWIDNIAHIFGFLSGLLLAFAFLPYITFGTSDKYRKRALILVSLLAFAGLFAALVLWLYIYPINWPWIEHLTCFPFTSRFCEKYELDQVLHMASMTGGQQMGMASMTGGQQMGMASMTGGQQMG
Test: FACS on MEF-DKO cells expressing the variant, 3 µg/ml antibody
Procedure: To pellet cells and remove supernatants, the plates were centrifuged at 1,500 rpm and 4° C. for 3 minutes. […] Finally, cells were resuspended in 150 μl per well of FACS buffer and analyzed using a BD Accuri™ C6 Plus flow cytometer (Becton Dickinson, Germany).
Recorded loss of binding vs wild type for the following binders

[ask] Look at this binder and give its reported loss of binding vs wild type. antibody 5 (antibody, V domains shown, mouse IgG, kappa light chain; also called clone #5; purified antibody 5) VH: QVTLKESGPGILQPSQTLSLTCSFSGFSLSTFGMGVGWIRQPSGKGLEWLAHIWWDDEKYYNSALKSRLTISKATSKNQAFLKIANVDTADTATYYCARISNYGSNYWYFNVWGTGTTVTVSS VL: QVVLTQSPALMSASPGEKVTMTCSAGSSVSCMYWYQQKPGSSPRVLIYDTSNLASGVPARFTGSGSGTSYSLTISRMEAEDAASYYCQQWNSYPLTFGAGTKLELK
[reply] ≥ 60%

[ask] Look at this binder and give its reported loss of binding vs wild type. antibody 48 (antibody, V domains shown, mouse IgG, kappa light chain; also called clone #48; purified antibody 48) VH: QVQLQQSGTELVRPGTSVKVSCKASGYAFTNYLIEWVKQRPGQGLEWIGVINPGSGFTKYNEKFKGKATLTADKSSSTVYMHLSSLTSEDSAVYFCARGLYRAMDYWGQGTSVTVSS VL: DIQMTQSPASQSASLGESVTITCLASQTIATWLAWYQQKPGKSPQLLIYGATTLADGVPSRFSGGGSGTKFSFKISSLQAEDFVSYYCQQLYSTPYTFGGGTKLEIK
[reply] ≥ 30%

Values were extracted from patent US20240287172A1.
